System: Puccinia graminis f. sp. tritici
protocol-text: Antifungal activity against Puccinia graminis f. sp. tritici assessed as inhibition of uredospore germination after 48 hr by microscope-slide assay
Format: functional
ED50 listing for selected compounds.

>  <compound>
COC(=O)/C=C\c1ccc(OC)c(OC)c1 [METHYL CIS-3,4-DIMETHOXYCINNAMATE]

>  <readout-unit>
pg/mL

>  <ED50>
3680

$$$$
>  <compound>
COC(=O)C(=Cc1ccc(O)c(OC)c1)C(=O)OC

>  <readout-unit>
pg/mL

>  <ED50>
270

$$$$
>  <compound>
COC(=O)C(=Cc1ccc(OC)c(OC)c1)C(=O)OC [METHYL 3,4-DIMETHOXYBENZALMALONATE]

>  <readout-unit>
pg/mL

>  <ED50>
4160

$$$$
>  <compound>
COC(=O)/C=C\c1ccc(O)c(OC)c1 [METHYL CIS-FERULATE]

>  <readout-unit>
pg/mL

>  <ED50>
180

$$$$

----------
Activity listing for selected molecules.
Test system: Colletotrichum gloeosporioides
protocol-text: Antifungal activity against Colletotrichum gloeosporioides f. sp. jussiaea assessed as conidial germination at 30 ppm after 48 hr by microscopic analysis
Format: functional

>  <molecule>
C/C=C1/C(=O)Nc2ccccc21

>  <Activity, %>
0

$$$$
>  <molecule>
CCCCC[C@@H]1CCCCC[C@@H]2CC(=O)[C@H](CCC(=O)O1)O2 [(-)-GLOEOSPORONE]

>  <Activity, %>
82

$$$$
>  <molecule>
CCCCC[C@@H]1CCCCC[C@@H]2CC(=O)[C@H](CCC(=O)O1)O2.NN [13-EPIGLOEOSPORONE]

>  <Activity, %>
81

$$$$
>  <molecule>
CCCCC[C@H]1CCCCC[C@H]2CC(=O)[C@@H](CCC(=O)O1)O2 [(+)-GLOEOSPORONE]

>  <Activity, %>
81

$$$$
>  <molecule>
C/C=C1\C(=O)Nc2ccccc21

>  <Activity, %>
0

$$$$
>  <molecule>
CCCCC[C@H]1CCCCC[C@H]2CC(=O)[C@@H](CCC(=O)O1)O2.NN [7-EPIGLOEOSPORONE]

>  <Activity, %>
82

$$$$

These data points were gathered from ChEMBL document CHEMBL3045506.
